Listed below: T/C values for each entry.
System: P388 leukemia ip, CD2F1 mice, survival T/C
TEST_METHOD_NOTES: NCI In Vivo Anticancer Drug Screen. Data for tumor model P388 Leukemia (intraperitoneal) in CD2F1 (CDF1) mice
CONDITION_SUMMARY: endpoint: median survival time; dose: 6.25 mg/kg/injection; schedule: Q01DX009 (ip); vehicle: saline; higher = longer survival
Inconclusive results and toxic doses are left out.

N=C(N)c1ccc(Oc2ccc(Oc3ccc(C(=N)N)cc3)cc2)cc1 ... 113 % of control
Cc1ccc(C(=O)CC[N+](C)(C)C)cc1 ... 113 % of control
CCC[CH2][Sn]([CH2]CCC)[O][Sn]([Cl])([CH2]CCC)[CH2]CCC ... 88 % of control

The recorded T/C for entry c1ccc(CSc2ncnc3n[nH]nc23)cc1 equals 106 % of control

The recorded T/C for entry CCCCCCCC[N+]1(CC)CCCC1 equals 95 % of control

The recorded T/C for entry CC(C)(C)C(=O)C=C(C(F)(F)F)C(F)(F)F equals 91 % of control

The recorded T/C for entry CC(=O)OC1C(OC(C)=O)C2C(C)CC3OC(=O)C(C)C3CC2(C)C1OC(C)=O (stereo unspecified) equals 110 % of control

The recorded T/C for entry CC1=CSC2=NCCCCN12 equals 91 % of control

* * *

Tested on: P388 leukemia ip, CD2F1 mice, survival T/C
TEST_METHOD_NOTES: NCI In Vivo Anticancer Drug Screen. Data for tumor model P388 Leukemia (intraperitoneal) in CD2F1 (CDF1) mice
CONDITION_SUMMARY: endpoint: median survival time; dose: 50.0 mg/kg/injection; schedule: Q04DX003 (ip); vehicle: saline with Tween-80
Inconclusive results and toxic doses are left out. How the source made its calls: active means survival T/C of 150% or more; inactive means T/C below 125% in these data.
Please answer using one outcome listed in active, inactive

Some solved entries appear below for comparison.
NNC(=O)c1ccc(N)cc1 ... inactive
O=[N+]([O-])c1cccc(SNc2cccc(Cl)c2)c1 ... inactive
O=Cc1cccc(CC(O)(C(F)(F)F)C(F)(F)F)n1 ... inactive
Brc1ccc(Nc2c3ccccc3nc3ccccc23)cc1 ... inactive
COc1cc(C(C)=O)cc([N+](=O)[O-])c1O ... inactive

Kindly provide the recorded test outcome for the following compound: CCCCOP(=S)(N1CC1)N1CC1
active

Kindly provide the recorded test outcome for the following compound: c1ccc(P2CCc3[nH]c4ccccc4c3C2)cc1 (configuration not stated)
inactive

* * *

Test system: P388 leukemia ip, CD2F1 mice, survival T/C
TEST_METHOD_NOTES: NCI In Vivo Anticancer Drug Screen. Data for tumor model P388 Leukemia (intraperitoneal) in CD2F1 (CDF1) mice
CONDITION_SUMMARY: endpoint: median survival time; dose: 15.0 mg/kg/injection; schedule: Q01DX005 (ip); vehicle: saline with Tween-80; higher = longer survival
Inconclusive results and toxic doses are left out.
MEASUREMENT_NAME: T/C

Study these solved cases before continuing.
COc1ccc(/C=N\NC(=O)CNC(=O)Nc2cccc([N+](=O)[O-])c2)cc1O ... 107 % of control
c1ccc(C(=C2C(=C(c3ccccc3)c3ccccc3)c3nc4ccccc4nc32)c2ccccc2)cc1 ... 88 % of control
CCOc1ccc(-n2cnc3c(=O)[nH]c(N)nc32)cc1 ... 90 % of control

The recorded T/C for entry Nc1ccc(S(=O)(=O)Nc2c(N)[nH]c(=S)[nH]c2=O)cc1 equals 115 % of control

The recorded T/C for entry COc1ccc(NC(=S)C#N)cc1 equals 99 % of control

The recorded T/C for entry O=C(Nc1cc(Cl)c(Cl)cc1Cl)OCc1ccc2c(c1)OCO2 equals 100 % of control

The recorded T/C for entry CN1Cc2c(cc(CN3CCCCC3)n2C)C(c2ccc(Br)cc2)C1 (stereo not given) equals 100 % of control

The recorded T/C for entry [N-]=[N+]=NCC(O)COc1c2ccccc2nc2ccccc12 (stereo not given) equals 95 % of control

The recorded T/C for entry COC1=Nc2ccccc2S(=O)(=O)C=C1 equals 101 % of control

The recorded T/C for entry O=c1oc2ccccc2c(O)c1C(c1ccc(Cl)cc1)c1c(O)c2ccccc2oc1=O equals 94 % of control

* * *

Tested on: P388 leukemia ip, CD2F1 mice, survival T/C
TEST_METHOD_NOTES: NCI In Vivo Anticancer Drug Screen. Data for tumor model P388 Leukemia (intraperitoneal) in CD2F1 (CDF1) mice
CONDITION_SUMMARY: endpoint: median survival time; dose: 400.0 mg/kg/injection; schedule: Q01DX009 (ip); vehicle: Klucel (hydroxypropylcellulose) (HPC); higher = longer survival
Experimental: The antitumor activity of compounds was measured in mice bearing transplantable tumors. Survival or tumor size were measured and the results are expressed as the measurement made in the treated group (T) divided by the measurement made in the vehicle treated control group (C). The tumor model used in this assay is P388 Leukemia (intraperitoneal) in CD2F1 (CDF1) mice
Inconclusive results and toxic doses are left out.
Listed below: T/C values for each entry.

Study these solved cases before continuing.
CC(=O)[O][Ge]([c]1ccccc1)([c]1ccccc1)[c]1ccccc1 ... 96 % of control
O=C1Nc2ccccc2/C1=C\c1ccccc1O ... 88 % of control
c1ccc(C2SC(c3ccccc3)SC(c3ccccc3)S2)cc1 (centres undefined) ... 106 % of control

# context switch: different molecule, same T/C
Form: item Cc1c(C)c2c(c(C)c1O)CCC(C)(CCCC(C)CCCC(C)CCCC(C)C)O2 (centres undefined) ; test system P388 leukemia ip, CD2F1 mice, survival T/C; T/C: 102 % of control

* * *

Listed below: T/C values for each entry.
Test system: P388 leukemia ip, CD2F1 mice, survival T/C
TEST_METHOD_NOTES: NCI In Vivo Anticancer Drug Screen. Data for tumor model P388 Leukemia (intraperitoneal) in CD2F1 (CDF1) mice
CONDITION_SUMMARY: endpoint: median survival time; dose: 200.0 mg/kg/injection; schedule: Q01DX001 (ip); vehicle: saline; higher = longer survival
Inconclusive results and toxic doses are left out.

Study these solved cases before continuing.
CO/C=N/c1cn2c(n1)CN=C2 ... 95 % of control
O=C1c2ccccc2C(=O)N1C/C=C\c1ccccc1 ... 102 % of control
COCC1(C)CCCC2(C)C1CCC13CCC(OC(C)=O)CC12O3 (centres undefined) ... 108 % of control

# context switch: different molecule, same T/C
The recorded T/C for entry CCC(C)C(C)CNC12CN3CN(CN(C3)C1)C2 (centres undefined) equals 108 % of control

* * *

Tested on: P388 leukemia ip, CD2F1 mice, survival T/C
TEST_METHOD_NOTES: NCI In Vivo Anticancer Drug Screen. Data for tumor model P388 Leukemia (intraperitoneal) in CD2F1 (CDF1) mice
CONDITION_SUMMARY: endpoint: median survival time; dose: 240.0 mg/kg/injection; schedule: Q01DX005 (ip); vehicle: saline with Tween-80; higher = longer survival
Toxic doses and inconclusive results are not listed.
MEASUREMENT_NAME: T/C

Study these solved cases before continuing.
CSC(SC)(SC)c1cc(C)no1 ... 104 % of control
COc1ccc(C(c2c(O)c3ccccc3oc2=O)c2c(O)c3ccccc3oc2=O)c(OC)c1 ... 94 % of control
C#CCSc1n[nH]c(=O)n1C1CCCCC1 ... 106 % of control

The recorded T/C for entry O=C(NC(Cc1ccc(O)cc1)C(=O)N=Nc1c(O)[nH]c2ccccc12)c1ccccc1 (stereo not drawn) equals 101 % of control

The recorded T/C for entry NC(CSC1c2ccccc2-c2ccccc21)C(=O)O (stereo not drawn) equals 92 % of control

The recorded T/C for entry Cc1[nH]nc(N)c1C(N)=O equals 86 % of control

The recorded T/C for entry O=C(O)c1cc2ccccc2c2c3c(ccc12)OCO3 equals 100 % of control

The recorded T/C for entry FC(F)(F)c1cccc(COCCN2CCN(Cc3cccc(C(F)(F)F)c3)CC2)c1 equals 112 % of control

The recorded T/C for entry CC(=O)CCS(=O)Cc1ccccc1 (stereo not drawn) equals 111 % of control

The recorded T/C for entry NC1=NN(Cc2nnc(-c3ccccc3)s2)C(=O)C1 equals 111 % of control

The recorded T/C for entry COC(=O)c1cc(C)c(C)cc1NC1OC(CO)C(O)C1O (stereo not drawn) equals 97 % of control

The recorded T/C for entry O=S(=O)(Nc1ccccc1C(F)(F)F)c1ccc(F)cc1 equals 95 % of control

The recorded T/C for entry CN1NC(c2ccccc2)=C(C#N)C(=O)CC1c1cccs1 (stereo not drawn) equals 96 % of control

The recorded T/C for entry CC(=O)OC1C=CC2Oc3ccc(C)cc3C1(C)O2 (stereo not drawn) equals 101 % of control

* * *

System: P388 leukemia ip, CD2F1 mice, survival T/C
TEST_METHOD_NOTES: NCI In Vivo Anticancer Drug Screen. Data for tumor model P388 Leukemia (intraperitoneal) in CD2F1 (CDF1) mice
CONDITION_SUMMARY: endpoint: median survival time; dose: 1.56 mg/kg/injection; schedule: Q01DX009 (ip); vehicle: saline; higher = longer survival
Toxic doses and inconclusive results are not listed.
MEASUREMENT_NAME: T/C

Study these solved cases before continuing.
CCCCCC[N+]1(CC)CCCC1 ... 113 % of control
C[N+]1(C2CCCCC2c2cccc(O)c2)CCCC1 (centres undefined) ... 98 % of control

The recorded T/C for entry CC[CH2][Sn]([CH2]CC)([O]C(C)=O)[c]1ccccc1 equals 90 % of control

The recorded T/C for entry Nc1nc(Cc2ccccc2)c(CCCNc2ccccc2)c(=O)[nH]1 equals 100 % of control
